species on record: Cavia porcellus; assay: Compound was tested for relative potency with respect to the compound Enkephalinamide in GPI assay; type: functional
Starred links: 1 amine or outer side, 2 acyl side, 3 side chain; linkers in the order of their positions; H or OH if unused. Non-standard residues stand in square brackets, D forms with d. Residues, ends and D or L forms follow the SMILES beside them. *: point of attachment. X1 = NC(=O)[C@@H]1O[C@@H](N*)[C@@H](O)[C@@H](O)[C@@H]1O; X3 = O=C(O)[C@@H]1O[C@@H](N*)[C@@H](O)[C@@H](O)[C@@H]1O; X2 = O=C(O)C1OC(NC(=O)C2OC(N*)C(O)C(O)C2O)C(O)C(O)C1O; hMet = CSCCC[C@H](N)C(=O)O; CO = O=C([*:1])[*:2]
Measured Relative potency values are reported for all entries that follow.
Please respond with just the number, no unit label.

MOLECULE	Relative potency
CC(C)C[C@H](NC(=O)N[C@@H]1O[C@@H](C(N)=O)[C@@H](O)[C@H](O)[C@@H]1O)C(=O)N[C@@H](Cc1ccccc1)C(=O)NCC(=O)NCC(=O)N[C@@H](Cc1ccc(O)cc1)C(=O)O ({X1-CO}-LFGGY-OH)	0.14
CC(C)C[C@H](NC(=O)[C@H](Cc1ccccc1)NC(=O)CNC(=O)CNC(=O)[C@@H](N)Cc1ccc(O)cc1)C(N)=O (single isomer, unassigned) [[LEU5]ENKEPHALIN]	1
CSCCC[C@H](NC(=O)N[C@@H]1O[C@@H](C(=O)O)[C@@H](O)[C@H](O)[C@@H]1O)C(=O)N[C@@H](Cc1ccccc1)C(=O)NCC(=O)NCC(=O)N[C@@H](Cc1ccc(O)cc1)C(=O)O ({X3-CO}-[hMet]FGGY-OH)	4.54
CC(C)C[C@H](NC(=O)NC1OC(C(=O)NC2OC(C(=O)O)C(O)C(O)C2O)C(O)C(O)C1O)C(=O)N[C@@H](Cc1ccccc1)C(=O)NCC(=O)NCC(=O)N[C@@H](Cc1ccc(O)cc1)C(=O)O (stereo not given in full) ({X2-CO}-LFGGY-OH)	0.52

Now take the following molecule into account.
(Q) Requested field: Relative potency. Item: CC(C)C[C@H](NC(=O)N[C@@H]1O[C@@H](C(=O)O)[C@@H](O)[C@H](O)[C@@H]1O)C(=O)N[C@@H](Cc1ccccc1)C(=O)NCC(=O)NCC(=O)N[C@@H](Cc1ccc(O)cc1)C(=O)O ({X3-CO}-LFGGY-OH)
(A) 2.74
